TARGET_ENTITY: GPR50 (Homo sapiens, UniProt Q13585)
Construct: purchased Promega (in-house HiBiT-GPCR construct library, NanoBRET)
Sequence (Q13585 whole entry): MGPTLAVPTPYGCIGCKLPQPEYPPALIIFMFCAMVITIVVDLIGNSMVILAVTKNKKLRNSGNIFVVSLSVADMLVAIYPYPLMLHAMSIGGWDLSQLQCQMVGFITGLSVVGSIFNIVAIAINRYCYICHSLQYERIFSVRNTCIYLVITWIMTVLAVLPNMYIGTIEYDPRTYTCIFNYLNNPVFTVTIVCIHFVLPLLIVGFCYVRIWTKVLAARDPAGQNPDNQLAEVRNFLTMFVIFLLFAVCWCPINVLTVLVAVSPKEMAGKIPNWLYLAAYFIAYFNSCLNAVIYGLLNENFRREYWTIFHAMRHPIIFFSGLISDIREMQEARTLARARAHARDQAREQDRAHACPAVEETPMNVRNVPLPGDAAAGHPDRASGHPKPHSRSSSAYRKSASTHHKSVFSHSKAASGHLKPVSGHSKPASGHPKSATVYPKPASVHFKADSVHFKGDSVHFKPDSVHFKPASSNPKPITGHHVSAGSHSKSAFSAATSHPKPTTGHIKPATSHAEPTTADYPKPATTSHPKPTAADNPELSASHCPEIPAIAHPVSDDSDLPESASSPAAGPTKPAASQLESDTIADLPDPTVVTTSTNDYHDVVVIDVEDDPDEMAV
MEASUREMENT_DESCRIPTION: NanoBRET screen HiBiT-GPR50 in HEK293
Format: binding
APPLIED_CONDITIONS: GPR50; tracer 0.1μM
ENDPOINT_NAME: NanoBRET Fold Response
Output spec: single numeric token, no unit.

compound=COc1ccccc1N1CCN(CCCCN2C(=O)c3ccc(CNC(=O)CCOCCOCCOCCOCCNC(=O)CCc4ccc5n4[B-](F)(F)[N+]4=C(c6ccc[nH]6)C=CC4=C5)cc3C2=O)CC1 assay_value=1.00
compound=O=C(CCc1ccc2n1[B-](F)(F)[N+]1=C(c3ccc[nH]3)C=CC1=C2)NCCOCCOCCNC(=O)OCCOCCN1CCN(C2=Nc3ccccc3Sc3ccccc32)CC1 assay_value=1.11
compound=CC(C)N(CC[C@H](c1ccccc1)c1cc(CCNC(=O)CCOCCOCCOCCOCCNC(=O)CCc2ccc3n2[B-](F)(F)[N+]2=C(c4ccc[nH]4)C=CC2=C3)ccc1O)C(C)C assay_value=1.12
compound=N#CN=C(NCCCOc1cccc(CN2CCCCC2)c1)NCCNC(=O)CCOCCOCCOCCOCCNC(=O)CCc1ccc2n1[B-](F)(F)[N+]1=C(c3ccc[nH]3)C=CC1=C2 assay_value=1.02

Kindly review the next compound as well.
Which NanoBRET Fold Response value is on record for `CC(C)N(CC[C@H](c1ccccc1)c1cc(CCNC(=O)c2ccc(CNC(=O)CCc3ccc4n3[B-](F)(F)[N+]3=C(c5ccc[nH]5)C=CC3=C4)cc2)ccc1O)C(C)C` ?
0.94

Hello, the source for this data is paper PMC8151276, in case you need it.
